assay.details: Pharmacokinetics in mice (iv and po)
Assay type: in vivo
test.parameters: mouse, plasma, iv, 5.0 mg/kg, read-out: Vss
Some molecules, each annotated with its measured Vd.
Record the value in L/kg, omitting the unit from your answer.

>>> print(df.to_string())
                                   molecule  measurement_kind  readout_units  reading
0  CC1CN(c2ccc3nc(-c4n[nH]c5ccc(NC(=O)C6CC6(F)F)cc45)[nH]c3c2)CCO1 (centres unmarked) [Compound 2]                Vd           L/kg     0.63

Now take the following molecule into account.
Vd for O=C(Nc1ccc2[nH]nc(-c3nc4ccc(N5CCOCC5)cc4[nH]3)c2c1)C1CC1(F)F (centres unmarked) [Compound 1] is 1.6

###

assay.details: Pharmacokinetics in mice (iv and po)
Type: in vivo
test.parameters: mouse, plasma, iv, 5.0 mg/kg
measurement.kind: Cmax (ng/mL)
Record the value in ng/mL, omitting the unit from your answer.

                                   compound  measurement_kind  reading
0  O=C(Nc1ccc2[nH]nc(-c3nc4ccc(N5CCOCC5)cc4[nH]3)c2c1)C1CC1(F)F (centres unmarked)              Cmax     1840

Now take the following compound into account.
Cmax for CC1CN(c2ccc3nc(-c4n[nH]c5ccc(NC(=O)C6CC6(F)F)cc45)[nH]c3c2)CCO1 (centres unmarked) is 4530

###

measurement.target: PDK1 (Homo sapiens (Human), UniProt O15530)
Sequence (O15530 whole entry): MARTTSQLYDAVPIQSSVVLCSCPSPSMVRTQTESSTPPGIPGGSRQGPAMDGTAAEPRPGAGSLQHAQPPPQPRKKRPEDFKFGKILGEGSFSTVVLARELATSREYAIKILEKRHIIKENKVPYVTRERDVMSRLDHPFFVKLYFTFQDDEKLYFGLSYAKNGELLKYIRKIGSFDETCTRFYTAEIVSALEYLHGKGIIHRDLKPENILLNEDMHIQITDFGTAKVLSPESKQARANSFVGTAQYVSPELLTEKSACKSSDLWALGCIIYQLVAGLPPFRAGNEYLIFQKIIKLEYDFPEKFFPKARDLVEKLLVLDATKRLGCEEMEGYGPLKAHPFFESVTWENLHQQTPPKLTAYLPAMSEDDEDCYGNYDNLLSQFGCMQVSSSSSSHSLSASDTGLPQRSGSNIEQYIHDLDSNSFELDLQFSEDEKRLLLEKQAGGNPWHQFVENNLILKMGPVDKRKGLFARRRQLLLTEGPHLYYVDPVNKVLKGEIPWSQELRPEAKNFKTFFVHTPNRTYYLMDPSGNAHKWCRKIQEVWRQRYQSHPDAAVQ
assay.details: PDK1 fluorometric activity assay performed by Life Technologies
Format: biochemical
test.parameters: fluorometric assay performed by Life Technologies (Table IV); read-out: PDK1 Kinase assays (IC50)
Labelling field: enter Fulfilled if recorded IC50 is less than 0.8 µM. Enter Not fulfilled if it equals or exceeds that cut-off.

Record excerpt, results attached:
>>> df
                                   compound    class_label
0  CC1CN(c2ccc3nc(-c4n[nH]c5ccc(NC(=O)C6CC6(F)F)cc45)[nH]c3c2)CCO1 (stereo not drawn) [Compound 2]      Fulfilled
1  O=C(Nc1ccc2[nH]nc(-c3nc4cc(CN5CCOCC5)ccc4[nH]3)c2c1)C1CC1(F)F (stereo not drawn) [Compound 9]  Not fulfilled
2  O=C(Nc1ccc2[nH]nc(-c3nc4cc(N5CCOCC5)ccc4[nH]3)c2c1)C1CCC(F)(F)CC1 [Compound 4]      Fulfilled
3  O=C(Nc1ccc2[nH]nc(-c3nc4ccccc4[nH]3)c2c1)C1CC1 [Compound 7]  Not fulfilled
4  O=C(Nc1ccc2[nH]nc(-c3nc4ccccc4[nH]3)c2c1)NC1CC1 [Compound 12]  Not fulfilled

Does this compound meet the criterion IC50 < 0.8 µM? O=C(Nc1ccc2[nH]nc(-c3nc4ccc(N5CCOCC5)cc4[nH]3)c2c1)C1CC1(F)F (stereo not drawn) [Compound 1]
Fulfilled

Does this compound meet the criterion IC50 < 0.8 µM? O=C(Nc1ccc2[nH]nc(-c3nc4ccccc4[nH]3)c2c1)c1cccc(F)c1 [Compound 13]
Not fulfilled

Does this compound meet the criterion IC50 < 0.8 µM? O=C(Nc1ccc2[nH]nc(-c3nc4cc(N5CCOCC5)ccc4[nH]3)c2c1)C1CC1 [Compound 3]
Fulfilled

###

Tested on: HCT-15
assay.details: Cell viability assay, cancer cell line panel
Assay type: cell-based
test.parameters: Homo sapiens, mutation KRAS, PIK3CA
measurement.kind: pIC50
Quick note: pIC50 values are minus log10 of concentrations in mol/L.

pIC50 for O=C(Nc1ccc2[nH]nc(-c3nc4ccc(N5CCOCC5)cc4[nH]3)c2c1)C1CC1(F)F (stereo not shown) is 5.16
